- system: DYRK1A (Homo sapiens)
- assayProtocol: Kinase profiling (radiometric filter-binding)
- Format: biochemical
- appliedConditions: 1 µM inhibitor, read-out: Residual activity, %
Square brackets hold non-standard residues; d marks the D form. Peptide text beside a SMILES is read from it. * marks the point of attachment. X3 = O=C(CCCCCNCc1nc2c(sc3cc(Br)cnc32)c(=O)[nH]1)*
measuredParameter: remaining activity at 1 µM (%)
Response body: numeric value in %, unit text excluded.

Just so you know, measured remaining activity at 1 µM for N=C(N)NCCC[C@@H](NC(=O)CCCCCNCc1nc2c(sc3cc(Br)cnc32)c(=O)[nH]1)C(=O)N[C@H](CCCNC(=N)N)C(=O)N[C@H](CCCNC(=N)N)C(=O)N[C@H](CCCNC(=N)N)C(=O)N[C@H](CCCNC(=N)N)C(=O)N[C@H](CCCNC(=N)N)C(=O)N[C@H](CCCCN)C(N)=O [ARC-3126, BPTP-Ahx-(D-Arg)6-D-Lys-NH2] (X3-[dR][dR][dR][dR][dR][dR][dK]-NH2) came out at 99

Reference for the values: paper PMC8307404
